Target: hERG channel (Homo sapiens, UniProt Q12809)
Construct: expressed in transfected cells; host or cells: CHO (Chinese hamster ovary), CHOhERG
Sequence (Q12809 whole entry): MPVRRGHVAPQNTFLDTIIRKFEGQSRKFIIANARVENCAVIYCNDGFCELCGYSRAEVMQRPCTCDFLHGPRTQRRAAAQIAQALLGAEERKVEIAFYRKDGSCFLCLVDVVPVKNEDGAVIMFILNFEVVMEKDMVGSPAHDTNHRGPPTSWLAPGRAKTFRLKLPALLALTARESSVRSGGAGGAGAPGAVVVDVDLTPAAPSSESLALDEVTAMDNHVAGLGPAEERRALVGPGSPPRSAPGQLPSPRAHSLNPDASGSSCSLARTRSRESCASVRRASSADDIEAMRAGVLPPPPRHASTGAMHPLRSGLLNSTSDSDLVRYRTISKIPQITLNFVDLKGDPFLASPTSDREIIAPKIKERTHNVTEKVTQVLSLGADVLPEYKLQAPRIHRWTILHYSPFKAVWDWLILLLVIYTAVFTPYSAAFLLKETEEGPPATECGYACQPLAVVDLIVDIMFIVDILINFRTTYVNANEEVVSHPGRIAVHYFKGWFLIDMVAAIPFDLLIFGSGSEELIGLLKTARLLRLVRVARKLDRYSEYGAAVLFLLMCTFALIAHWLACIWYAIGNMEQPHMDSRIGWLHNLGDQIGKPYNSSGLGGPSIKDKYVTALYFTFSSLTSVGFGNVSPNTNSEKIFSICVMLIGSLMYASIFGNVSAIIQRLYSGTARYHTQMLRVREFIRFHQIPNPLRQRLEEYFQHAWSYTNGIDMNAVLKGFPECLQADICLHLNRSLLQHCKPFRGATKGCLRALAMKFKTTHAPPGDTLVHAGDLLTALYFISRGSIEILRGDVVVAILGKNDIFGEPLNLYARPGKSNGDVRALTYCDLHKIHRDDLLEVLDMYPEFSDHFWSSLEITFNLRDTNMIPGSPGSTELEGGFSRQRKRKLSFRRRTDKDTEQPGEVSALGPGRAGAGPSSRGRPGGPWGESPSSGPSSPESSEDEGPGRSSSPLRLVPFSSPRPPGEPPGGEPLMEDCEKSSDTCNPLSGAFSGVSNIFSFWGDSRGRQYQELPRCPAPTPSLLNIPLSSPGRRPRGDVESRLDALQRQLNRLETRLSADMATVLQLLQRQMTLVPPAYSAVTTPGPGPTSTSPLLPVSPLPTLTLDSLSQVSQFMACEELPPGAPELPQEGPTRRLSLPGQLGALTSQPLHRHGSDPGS
Assay: hERG channel inhibition assay (patch-clamp, CHOhERG cells)
Assay type: cell-based
Details: human, CHO cells stably expressing hERG (CHOhERG); CHOhERG cells, whole-cell patch-clamp
MEASURED QUANTITY: IC20

Use the examples below as a reference point.
>  <COMPOUND>
C[C@@H]1CN(c2ccc(C#N)c3ncccc23)C[C@@H]2CN(c3nccc(N4CC(N)C4)n3)CCN21 [Example 39]

>  <MEASURED QUANTITY>
IC20

>  <OBSERVED VALUE>
5 µM

$$$$
>  <COMPOUND>
CO[C@@H]1CN(c2ccnc(N3CCN4[C@@H](C3)CN(c3ccc(C#N)c5ncccc35)C[C@H]4C)n2)C[C@H]1N [Example 37]

>  <MEASURED QUANTITY>
IC20

>  <OBSERVED VALUE>
4.5 µM

$$$$
>  <COMPOUND>
Cc1cc(N2CCNCC2)cnc1N1CCN2[C@@H](C1)CN(c1cc(=O)n(C)c3ncccc13)C[C@H]2C [Example 93]

>  <MEASURED QUANTITY>
IC20

>  <OBSERVED VALUE>
> 10 µM

$$$$
>  <COMPOUND>
C[C@@H]1CN(c2ccc(C#N)c3ncccc23)C[C@@H]2CN(c3cccc4c3CNC4)CCN21 [Example 9]

>  <MEASURED QUANTITY>
IC20

>  <OBSERVED VALUE>
5.17 µM

$$$$
>  <COMPOUND>
[2H]c1ccc2c(N3C[C@@H]4CN(Cc5ccc(N6C[C@@H]7C[C@H]6CN7)nc5C)CCN4[C@H](C)C3)ccc(C#N)c2n1 [Example 92]

>  <MEASURED QUANTITY>
IC20

>  <OBSERVED VALUE>
> 10 µM

$$$$

Ask: What value of IC20 has been recorded for this entry: C[C@@H]1CN(c2ccc(C#N)n3ncc(F)c23)C[C@@H]2CN(Cc3ccc4c(c3)CNCC4)CCN21 [Example 69]
Result: > 10 µM

Ask: What do you have for C[C@@H]1CN(c2ccc(C#N)c3ncccc23)C[C@@H]2CN(CCc3ccc(N4CC5(CN(C)C5)C4)nc3)CCN21 [Example 22] ?
Result: > 10 µM

Ask: What about [2H]c1ccc2c(N3C[C@@H]4CN(Cc5ccc(N[C@H]6CNC[C@H]6F)nc5C)CCN4[C@H](C)C3)ccc(C#N)c2n1 [Example 82] ?
Result: > 10 µM
